Test system: BJ
PROTOCOL_DETAILS: cytotoxicity toward BJ-TERT-LT-ST fibroblasts, dose response, cell-based, RAS-independent, luminescence (AID 1935);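 note: BJ fibroblasts immortalized with TERT plus LT and ST oncogenes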
Type: functional
RUN_CONDITIONS: Homo sapiens
Activity calls are given as the source filed them. Cut-off read from the data, not from the text of the source: actives have a measured EC50 and inactives only a lower limit.

| COMPOUND | EC50 |
| --- | --- |
| COc1ccc(-c2c/c(=N\c3nc(-c4ccccc4)c(C)s3)c3ccccc3o2)cc1O | 1.82 µM (active) |
| CCOc1cc(/C=C2\COc3ccccc3C2=O)cc(Br)c1OCC(=O)N(C)C | 16.4 µM (active) |
| CN(C)c1ccc(C(=O)N/N=C/C23CC[C@@H](O)CC2(O)CC[C@@H]2[C@@H]3CCC3(C)C(C4=CC(=O)OC4)CCC23O)cc1 (some centres undefined) | 19 µM (active) |
| CN(Cc1cnc2nc(N)nc(N)c2n1)c1ccc(C(=O)N[C@@H](CCC(=O)O)C(=O)O)cc1 | > 150 µM (not active) |

Every entry's value here was drawn from ChEMBL document CHEMBL1201862.
